Source listed as the supplement of paper PMC10981050.

test system: MARIMO; assay: cell viability relative to vehicle control; higher = less cytotoxic; conditions: 10 µM; SRSF2 genotype: SRSF2 P95H/wt;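 further: after 48 h exposure read by CellTiter-Glo luminescence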
Counter-ions that a name gives are not always drawn.
reported_property: cell viability (%)
Numeric only. Scale: %

[Q] Value lookup for cell viability; key = CC1(C)OCCn2c1nc1c(N3CCOCC3)nc(-c3cnc(N)nc3)nc12
[A] 45.7

[Q] Data request, read-out cell viability, for CCCC(CCC)C(N)=O [Valpromide]
[A] 99.5

[Q] Quick check: cell viability of c1ccc2c(c1)CCCC2C1=NCCN1 (configuration not stated) [Tetrahydrozoline HCl] ?
[A] 92.1

[Q] Reported cell viability for O=C(O)CCCNC(=O)c1cccnc1 : what is it?
[A] 97.1

[Q] Which cell viability is listed for COc1cc(/C=C/c2ccc(O)c(O)c2)cc(OC)c1 [3'-Hydroxypterostilbene] ?
[A] 29.2

[Q] Look up cell viability for this molecule: CN(C)CCNC(=O)c1cccn2c(=O)c3cc4ccccc4cc3nc12
[A] 35

[Q] Query (molecule): O=C(O)Cc1ccccc1Nc1c(Cl)cccc1Cl [Diclofenac Diethylamine] ; field requested: cell viability
[A] 105

[Q] Tell me the measured cell viability of NC(=O)c1ccc(-c2nc(-c3ccc4c(c3)OCCO4)c(-c3ccccn3)[nH]2)cc1 , please.
[A] 98.5

[Q] Requested field: cell viability. Item: c1cncc(CN2CCC(n3ncc4c(N5CCOCC5)nc(-c5ccc6[nH]ccc6c5)nc43)CC2)c1
[A] 3.19

[Q] Report cell viability for CC(C)=C1CC[C@@H](C)CC1=O please.
[A] 101

[Q] Need cell viability of OC[C@@H](O)[C@@H](O)[C@@H](O)CO , thanks.
[A] 89.7

[Q] Looking for the measured cell viability of CCN(CC)CCOC(=O)c1ccc(N)cc1 , can you help?
[A] 99.6

[Q] Field request: cell viability | item: C=C[C@]1(C)C[C@@H](OC(=O)CSCCN(CC)CC)[C@]2(C)[C@H](C)CC[C@]3(CCC(=O)[C@H]32)[C@@H](C)[C@@H]1O
[A] 75.6

[Q] Which cell viability value belongs to OC[C@H]1O[C@@H](O[C@@H]2OC=C[C@H]3[C@H](O)[C@@H]4O[C@]4(CO)[C@@H]23)[C@H](O)[C@@H](O)[C@@H]1O ?
[A] 103

[Q] Fill in the blank: the reported cell viability of Cc1[nH]cnc1CN1CCc2c(c3ccccc3n2C)C1=O [Alosetron Hydrochloride] is ____.
[A] 93.7

[Q] Requested field: cell viability. Item: CCN[C@H]1CN(CCCOC)S(=O)(=O)c2sc(S(N)(=O)=O)cc21 [Brinzolamide]
[A] 83.7

[Q] What cell viability value was documented for this molecule, COc1ccc(CCCOC(Cn2ccnc2)c2ccc(OC)cc2)cc1 (configuration not stated) ?
[A] 13.8

* * *

system: MARIMO; assay: cell viability relative to vehicle control; higher = less cytotoxic; conditions: 10 µM; SRSF2 genotype: SRSF2 P95H/wt;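 further: after 48 h exposure read by CellTiter-Glo luminescence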
reported_property: cell viability (%)
Report only the number, with the unit % understood.

[Q] Value lookup for cell viability; key = CC(/C=C/C=C(\C)C(=O)O[C@@H]1O[C@H](CO)[C@@H](O)[C@H](O)[C@H]1O)=C\C=C\C=C(C)\C=C\C=C(/C)C(=O)O[C@@H]1O[C@H](CO[C@@H]2O[C@H](CO)[C@@H](O)[C@H](O)[C@H]2O)[C@@H](O)[C@H](O)[C@H]1O
[A] 104

[Q] What value of cell viability has been reported for the following molecule? O=C(N[C@@H](c1ccccc1)[C@@H](O)C(=O)O)c1ccccc1
[A] 100

[Q] Query: cell viability; subject: CC(=NNC(=S)N1CCC1)c1ccccn1
[A] 7.26

[Q] State the recorded cell viability for this entry: CC(=O)N1c2ccc(-c3ccc(C(=O)O)cc3)cc2[C@H](Nc2ccc(Cl)cc2)C[C@@H]1C
[A] 23.6
